- experimental system: EGFR del19/C797S (Homo sapiens, UniProt P00533, C797S/DEL746-750)
- Sequence (P00533 with tags, fused parts or gaps DEL746-750/C797S): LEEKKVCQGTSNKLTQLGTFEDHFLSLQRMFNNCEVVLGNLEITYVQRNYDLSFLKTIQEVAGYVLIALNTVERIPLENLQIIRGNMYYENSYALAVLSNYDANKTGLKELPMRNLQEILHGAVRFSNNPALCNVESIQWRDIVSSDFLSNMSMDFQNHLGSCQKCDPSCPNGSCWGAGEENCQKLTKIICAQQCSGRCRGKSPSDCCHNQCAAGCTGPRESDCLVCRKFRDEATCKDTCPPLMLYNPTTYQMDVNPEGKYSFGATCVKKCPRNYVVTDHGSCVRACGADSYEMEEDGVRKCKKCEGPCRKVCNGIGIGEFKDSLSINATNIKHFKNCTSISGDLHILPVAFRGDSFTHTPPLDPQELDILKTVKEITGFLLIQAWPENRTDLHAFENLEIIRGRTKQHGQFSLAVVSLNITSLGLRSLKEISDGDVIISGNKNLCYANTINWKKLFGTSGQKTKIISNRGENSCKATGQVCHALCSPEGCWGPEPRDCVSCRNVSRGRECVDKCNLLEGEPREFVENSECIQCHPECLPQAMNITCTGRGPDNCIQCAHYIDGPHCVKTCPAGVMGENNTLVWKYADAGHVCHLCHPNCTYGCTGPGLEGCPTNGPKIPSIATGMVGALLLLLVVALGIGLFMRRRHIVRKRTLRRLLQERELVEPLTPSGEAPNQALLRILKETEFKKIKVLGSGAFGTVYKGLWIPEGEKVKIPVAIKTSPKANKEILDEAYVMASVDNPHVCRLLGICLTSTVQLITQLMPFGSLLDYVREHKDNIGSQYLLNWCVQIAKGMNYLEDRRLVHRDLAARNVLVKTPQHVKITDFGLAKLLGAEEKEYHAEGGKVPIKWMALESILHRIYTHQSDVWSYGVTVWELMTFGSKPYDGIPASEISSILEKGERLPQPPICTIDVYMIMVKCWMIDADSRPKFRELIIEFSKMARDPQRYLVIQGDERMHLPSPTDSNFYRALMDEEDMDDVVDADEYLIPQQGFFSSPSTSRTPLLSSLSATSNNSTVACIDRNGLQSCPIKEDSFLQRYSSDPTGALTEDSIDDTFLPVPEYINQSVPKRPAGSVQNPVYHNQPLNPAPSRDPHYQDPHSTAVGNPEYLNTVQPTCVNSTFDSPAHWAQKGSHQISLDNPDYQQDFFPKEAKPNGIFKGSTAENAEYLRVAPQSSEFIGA
- test protocol: Biochemical EGFR kinase assay (Lance Ultra TR-FRET), double mutant del19/C797S
- experimental conditions: Km ATP; read-out: IC50 del19/C797S (nM) Km ATP
# log10 of IC50 per entry
measurement name: log10 of IC50 (log10 of the value in nM)

compound: CS(=O)(=O)N1CCC(c2nccc(Nc3cc(N[C@H]4CC[C@@](C)(O)CC4)c(-c4ccn(C(F)F)n4)cn3)n2)CC1
experimental system: EGFR del19/C797S (Homo sapiens, UniProt P00533, C797S/DEL746-750)
log10 of IC50: 3.80

compound: CN1CC(Nc2cc(Nc3ccnc(-c4cnn(S(=O)(=O)C5CC5)c4)n3)ncc2-c2ccn(C(F)F)n2)CCC1=O (stereo not shown)
experimental system: EGFR del19/C797S (Homo sapiens, UniProt P00533, C797S/DEL746-750)
log10 of IC50: 1.08

compound: Cn1ccc(-c2cnc(Nc3ccnc(-c4cnn(S(=O)(=O)C5CC5)c4)n3)cc2N[C@H]2CC[C@](O)(CO)CC2)n1
experimental system: EGFR del19/C797S (Homo sapiens, UniProt P00533, C797S/DEL746-750)
log10 of IC50: -0.40

compound: CN(C)[C@H]1CC[C@H](CNc2cc(Nc3ccnc(-c4cnn(S(=O)(=O)C5CC5)c4)n3)ncc2-c2ccn(C(F)F)n2)CC1
experimental system: EGFR del19/C797S (Homo sapiens, UniProt P00533, C797S/DEL746-750)
log10 of IC50: -0.70

compound: O=S(=O)(C1CC1)n1cc(-c2nccc(Nc3cc(OC4CCC(O)C4)c(-c4ccn(C(F)F)n4)cn3)n2)cn1 (stereo not shown)
experimental system: EGFR del19/C797S (Homo sapiens, UniProt P00533, C797S/DEL746-750)
log10 of IC50: 2.05

compound: Cn1cc(-c2nccc(Nc3cc(N[C@H]4CC[C@@](C)(O)CC4)c(-c4ccn(C(F)F)n4)cn3)n2)cn1
experimental system: EGFR del19/C797S (Homo sapiens, UniProt P00533, C797S/DEL746-750)
log10 of IC50: 1.70

compound: O=S(=O)(C1CC1)n1cc(-c2nccc(Nc3cc(N[C@H]4CC[C@@H](NCCF)CC4)c(-c4ccn(CC(F)F)n4)cn3)n2)cn1
experimental system: EGFR del19/C797S (Homo sapiens, UniProt P00533, C797S/DEL746-750)
log10 of IC50: -0.40

compound: O=S(=O)(C1CC1)n1cc(-c2nccc(Nc3cc(N[C@H]4CC[C@@H](NCC(F)F)CC4)c(-c4csc(C(F)(F)F)n4)cn3)n2)cn1
experimental system: EGFR del19/C797S (Homo sapiens, UniProt P00533, C797S/DEL746-750)
log10 of IC50: 0.89

compound: Cn1ccc(-c2cnc(Nc3ccnc(-c4cnn(S(=O)(=O)C5CC5)c4)n3)cc2NC2CCCC(NCC(F)F)C2)n1 (stereo not shown)
experimental system: EGFR del19/C797S (Homo sapiens, UniProt P00533, C797S/DEL746-750)
log10 of IC50: 0.52

compound: C[C@]1(O)CC[C@@H](Nc2cc(Nc3ccnc(-c4cnn(S(=O)(=O)C5CC5)c4)n3)ncc2-n2ccc(OC(F)F)n2)CC1
experimental system: EGFR del19/C797S (Homo sapiens, UniProt P00533, C797S/DEL746-750)
log10 of IC50: 1.19

compound: CN(C)C[C@H]1C[C@H](CNc2cc(Nc3ccnc(-c4cnn(S(=O)(=O)C5CC5)c4)n3)ncc2-c2ccn(C(F)F)n2)C1
experimental system: EGFR del19/C797S (Homo sapiens, UniProt P00533, C797S/DEL746-750)
log10 of IC50: 0.81

compound: C[C@]1(O)CC[C@@H](Nc2cc(Nc3ccnc(-c4cccnc4F)n3)ncc2-c2ccn(C(F)F)n2)CC1
experimental system: EGFR del19/C797S (Homo sapiens, UniProt P00533, C797S/DEL746-750)
log10 of IC50: 1.98

compound: O=S(=O)(C1CC1)n1cc(-c2nccc(Nc3cc(NC[C@H]4CC[C@@H](O)C4)c(-c4ccn(CC(F)(F)F)n4)cn3)n2)cn1
experimental system: EGFR del19/C797S (Homo sapiens, UniProt P00533, C797S/DEL746-750)
log10 of IC50: 0.88

compound: O=S(=O)(C1CC1)n1cc(-c2nccc(Nc3cc(NC[C@H]4C[C@H](CO)C4)c(-c4ccn(C(F)F)n4)cn3)n2)cn1
experimental system: EGFR del19/C797S (Homo sapiens, UniProt P00533, C797S/DEL746-750)
log10 of IC50: 0.08

compound: O=S(=O)(C1CC1)n1cc(-c2nccc(Nc3cc(N[C@H]4CC[C@@H](NCCF)CC4)c(-c4cc5n(n4)CCCC5)cn3)n2)cn1
experimental system: EGFR del19/C797S (Homo sapiens, UniProt P00533, C797S/DEL746-750)
log10 of IC50: -0.70

compound: C=CCCS(=O)(=O)n1cc(-c2nccc(Nc3cc(N[C@H]4CC[C@@](C)(O)CC4)c(-c4ccn(C(F)F)n4)cn3)n2)cn1
experimental system: EGFR del19/C797S (Homo sapiens, UniProt P00533, C797S/DEL746-750)
log10 of IC50: -0.10

compound: CN(C)CCCn1ccc(-c2cnc(Nc3ccnc(-c4cnn(S(=O)(=O)C5CC5)c4)n3)cc2NCC2(CO)COC2)n1
experimental system: EGFR del19/C797S (Homo sapiens, UniProt P00533, C797S/DEL746-750)
log10 of IC50: -0.22

compound: CN(C)C[C@H]1CC[C@H](CNc2cc(Nc3ccnc(-c4cnn(S(=O)(=O)C5CC5)c4)n3)ncc2-c2ccn(C(F)F)n2)CC1
experimental system: EGFR del19/C797S (Homo sapiens, UniProt P00533, C797S/DEL746-750)
log10 of IC50: -0.30

compound: O=S(=O)(C1CC1)n1cc(-c2nccc(Nc3cc(N[C@H]4CCC[C@H](CO)C4)c(-c4ccn(CC(F)(F)F)n4)cn3)n2)cn1
experimental system: EGFR del19/C797S (Homo sapiens, UniProt P00533, C797S/DEL746-750)
log10 of IC50: 1.01

compound: O=S(=O)(C1CC1)n1cc(-c2nccc(Nc3cc(NC4CC(O)C4)c(-c4ccn(C(F)F)n4)cn3)n2)cn1 (stereo not shown)
experimental system: EGFR del19/C797S (Homo sapiens, UniProt P00533, C797S/DEL746-750)
log10 of IC50: 0.36

compound: CN[C@H]1CC[C@@H](Oc2cc(Nc3ccnc(-c4cnn(S(=O)(=O)C5CC5)c4)n3)ncc2-c2cnn(C(F)F)c2)CC1
experimental system: EGFR del19/C797S (Homo sapiens, UniProt P00533, C797S/DEL746-750)
log10 of IC50: 1.05

compound: CCOC(=O)c1ccn(-c2cnc(Nc3ccnc(-c4cnn(S(=O)(=O)C5CC5)c4)n3)cc2N[C@H]2CC[C@@](C)(O)CC2)n1
experimental system: EGFR del19/C797S (Homo sapiens, UniProt P00533, C797S/DEL746-750)
log10 of IC50: 0.80

compound: O=S(=O)(C1CC1)n1cc(-c2nccc(Nc3cc(N[C@H]4CCC[C@H](CO)C4)c(-c4ccn(C(F)F)n4)cn3)n2)cn1
experimental system: EGFR del19/C797S (Homo sapiens, UniProt P00533, C797S/DEL746-750)
log10 of IC50: 0.15

compound: CN(C)S(=O)(=O)n1cc(-c2nccc(Nc3cc(N[C@H]4CC[C@@](C)(O)CC4)c(-c4cc(C(F)(F)F)n(C)n4)cn3)n2)cn1
experimental system: EGFR del19/C797S (Homo sapiens, UniProt P00533, C797S/DEL746-750)
log10 of IC50: 1.20

compound: CN(CC(F)F)C[C@H]1CC[C@@H](Nc2cc(Nc3ccnc(-c4cnn(S(=O)(=O)C5CC5)c4)n3)ncc2-c2ccn(C)n2)CC1
experimental system: EGFR del19/C797S (Homo sapiens, UniProt P00533, C797S/DEL746-750)
log10 of IC50: 1.24
